Assign TGI to each entry below.
Tested on: SW-620 colon
assay.details: NCI tumour cell line growth inhibition, 48 h
Dear colleague, please return just the value in µM, with no unit written.

TGI for Cc1ccc(S(=O)c2ccc([N+](=O)[O-])c3nonc23)cc1 (stereo not given) is 5

response.value for COc1ccc2nc3cc(Cl)ccc3c(Nc3ccc(O)c(CN4CCCC4)c3)c2c1 (field: TGI) = 6.19

Notebook: CC(C)c1ccc2c(c1)c(SC(C)(C)C)c(CC(C)(C)C(=O)O)n2Cc1ccc(Cl)cc1 , TGI read as 29.1

Per the records, this compound ( O=C(Nc1nc2ccc(F)cc2s1)c1cccnc1Nc1ccc(Cl)cc1Cl ) has TGI equal to 15.1

====

So I've got a bunch of compounds here, and I need their TGI values.
Test system: SR leukemia
assay.details: NCI tumour cell line growth inhibition, 48 h

get_value(item= CCOP(=O)(CC1OC(CO)C(O)C1O)OCC (centres undefined) , readout=TGI) returns > 100 µM

Given item CO[C@H](C)[C@](O)(C(=O)OCC1=CCN2CC[C@@H](O)[C@H]12)C(C)C , the value recorded as its TGI is > 100 µM

// sample Cc1ccc(NCCNCC(O)CO)c2c(=O)c3ccccc3sc12 (centres undefined) , its TGI was 3.97 µM

Query O=C1[C@H]2ON(c3ccccc3)C(c3cccc([N+](=O)[O-])c3)[C@H]2C(=O)N1c1ccc(Cc2ccc(N3C(=O)[C@@H]4ON(c5ccccc5)C(c5cccc([N+](=O)[O-])c5)[C@@H]4C3=O)cc2)cc1 (some centres undefined) yields TGI of > 100 µM

====

System: HT29 colon
assay.details: NCI tumour cell line growth inhibition, 48 h
observable: GI50

HT29 colon data for COc1ccc(-c2nc(/C=N/Nc3cc(C)nc4ccc(Br)cc34)c(C)o2)cc1 ; its GI50: 1620 nM

Entry CNc1ccc(N=Nc2cccc3ncccc23)cc1 : GI50 on HT29 colon = 37500 nM

Note to self: GI50 of COc1ccc(-c2nn(-c3cccc(Cl)c3)cc2-c2cc(-c3cccs3)no2)cc1 with HT29 colon was 3850 nM

Given the compound CC(C)c1ccc2c(c1)c(SC(C)(C)C)c(CC(C)(C)C(=O)O)n2Cc1ccc(Cl)cc1 and test system HT29 colon, the measured GI50 is 5750 nM

Bench note, HT29 colon: CCCCCCCCCCCCNC(=O)[C@H]1CSC(c2ccsc2)N1 (stereo not given in full) , GI50 reads 995 nM

With HT29 colon as the test system, Cc1ccc(NCCNCC(O)CO)c2c(=O)c3ccccc3sc12 (stereo not given) showed GI50 of 1410 nM

Form: item COc1ccc(-c2nn(-c3cccc(Cl)c3)cc2/C=C2\C(=N)N(c3ccccc3)N=C2N)cc1 ; test system HT29 colon; GI50: 2570 nM

The recorded GI50 with HT29 colon for Fc1ccc(-c2cc(-c3cn[nH]c3-c3ccccn3)ccn2)cc1 was > 25000 nM

Entry Cc1ccc2c(C(C[N+](=O)[O-])c3ccco3)c(-c3ccccc3)[nH]c2c1 (stereo not given) : GI50 on HT29 colon = > 100000 nM

Let me check: O=C(Nc1cccc(Cl)c1)c1cc(Cl)ccc1O , system HT29 colon, measured GI50 is 2490 nM

====

Tested on: UO-31 renal
assay.details: NCI tumour cell line growth inhibition, 48 h
observable: GI50

Value of measured GI50 for the entry COc1ccc(-c2nn(-c3cccc(Cl)c3)cc2-c2cc(-c3cccs3)no2)cc1 : 2.56 µM

GET /value?item= Cc1cc(S(N)(=O)=O)c(S/C(=N\NS(=O)(=O)c2ccccc2)c2ccc(Cl)c(Cl)c2)cc1Cl &field=GI50 returns 54.5 µM

Form: compound = Cc1nc2cc(Nc3nc(Nc4ccc(F)cc4)nc(-c4ccc(Cl)cc4)n3)ccc2n1Cc1ccccc1 ; GI50 = 3.59 µM

The measured GI50 associated with COc1ccc(-c2nn3ncccc3c2-c2ccnc(Nc3cccc(C(F)(F)F)c3)n2)cc1 reads 4.83 µM

The reported GI50 of the compound O=c1c2ccccc2c(=O)c2c1sc1c(=O)c3ccc(O)cc3c(=O)c12 was 0.644 µM

Looking up C=C1C(=O)C23CC1CCC2C12CO[C@@]3(O)[C@@H](O)C1C(C)(C)C=CC2=O (some centres not stated) , I see its GI50 listed as 8.37 µM

Form field GI50, entry CCn1c(-c2nonc2N)nc2c(C#CC(C)(C)O)ncc(OC[C@@H]3CCCN3)c21 : 13.4 µM

Entry Cc1cc(Nc2cc(N3CCN(C)CC3)nc(C#Cc3ccccc3)n2)n[nH]1 — recorded GI50 = 1.07 µM

Consider CCOC(=O)C(=Cc1c(-c2ccccc2)[nH]c2ccccc12)C(=O)OCC . Its measured GI50 is 3.92 µM

The reported GI50 of the compound CCCC(=O)Nc1cn(COC)c(C(=O)N2C[C@H]3C[C@@]34C2=CC(=O)c2[nH]cc(C)c24)n1 was 3.47 µM

Looking up C#CCn1cc(C=C2C(=O)NC(=S)NC2=O)c2cc(Cl)ccc21 , I see its GI50 listed as 1.7 µM

The recorded GI50 for N#CC1=C(N)NC(=S)C(C#N)C12Nc1ccccc1S2 (configuration not stated) is 17.6 µM

Sample CCOC(=O)/N=c1\ssc(Cl)c1Cl ; GI50 observed: 4.97 µM

GI50 for COc1ccc(C2NC(=S)NC3=C2COc2ccc(F)cc23)cc1OC (configuration not stated) is 39.2 µM

The value of GI50 measured for the compound CC(=O)OC1Oc2cc(C)c(C)cc2-c2oc(=O)c(-c3ccccc3)cc21 (configuration not stated) turned out to be 0.499 µM

Entry N#CC1=C(N)Oc2c(sc3c(Br)cccc23)C1c1ccc(F)cc1 (configuration not stated) ; GI50 = 0.515 µM

According to the records, this compound COc1ccc2c(c1)c(-c1cc(-c3cn(C)c4ccc(OC)cc34)[nH]n1)cn2C displays GI50 of > 100 µM

====

So I've got a bunch of compounds here, and I need their TGI values.
Test system: M14 melanoma
assay.details: NCI tumour cell line growth inhibition, 48 h

Data point: O=C(NOC(=O)c1ccc([N+](=O)[O-])cc1)c1ccc(Cl)cc1 ; TGI = > 100 µM

# TGI (compound: C[C@@](Br)(C(=O)O)[C@H](Br)C(=O)O ) is > 100 µM

Measured TGI of COc1cccc(C2CC(=O)Nc3cc4c(cc32)CCC4)c1OC (stereo unspecified) : 8.94 µM

Documented TGI of COc1ccc(-c2cn(-c3cc(OC)c(OC)c(OC)c3)c(=O)n2-c2ccccc2)cc1 : > 100 µM

The compound identified as Oc1ccc(C[C@@H]2CN[C@H](Cc3ccc(O)c(Br)c3)CN2)cc1 registered its TGI at > 100 µM

// O=C(O)Cn1c[n+](NC(=O)Cc2ccccc2)cn1 : TGI value = > 10 µM

Measured TGI, N=C(N)SCC(=O)O : > 100 µM

The compound listed as COc1ccc(-c2oc3cc(OC)ccc3c(=O)c2O)cc1 shows TGI equal to > 31.6 µM

Please fill in: TGI reported for C(/C=C/N1CCCC1)=C\c1nc(N2CCCC2)c2ccccc2n1 = 33.5 µM

So, CCOc1ccccc1NC(=O)CCC(=O)NN ? Its TGI was > 100 µM

compound C/C(=N\O)[C@H]1CC[C@@]2(C)[C@@H]3CC[C@H]4C(C)(C)/C(=N/O)CC[C@@]45CC35CC[C@]12C (stereo partly specified) , TGI observed: 8.11 µM

====

Tested on: U251 CNS
assay.details: NCI tumour cell line growth inhibition, 48 h
observable: TGI

TGI reading for C/C(=N\O)[C@H]1CC[C@@]2(C)[C@@H]3CC[C@H]4C(C)(C)/C(=N/O)CC[C@@]45CC35CC[C@]12C (some centres undefined) : 6.81 µM

get_value(item= CCCC/C=C1\CCC(CN2CCCC2)C1=O (centres undefined) , readout=TGI) returns 19.6 µM

Kindly note the recorded TGI for O=C(O)C(CS)N=Cc1nc(-c2ccccc2)oc1O (centres undefined) , which is > 100 µM

response.value for COc1ccc(-c2nc(/C=N/Nc3cc(C)nc4ccc(Br)cc34)c(C)o2)cc1 (field: TGI) = 3.39 µM

Field TGI (entry O=c1c2ccccc2c(=O)c2c1sc1c(=O)c3ccc(O)cc3c(=O)c12 ) reads 2.39 µM

So, COc1ccc(C(=C2C(=O)OC(=O)C2=C(C)C)c2ccc(OC)cc2)cc1 ? Its TGI was > 100 µM

Lab note: NC1(C(=O)O)CSSC1 gave TGI of 22.6 µM

Sure, the documented TGI for O=C1Cc2ccccc2CCc2ccccc21 is > 100 µM

Entry COc1ccc(-c2cn(-c3cc(OC)c(OC)c(OC)c3)c(=O)n2-c2ccccc2)cc1 , TGI reported as > 100 µM

The value of TGI measured for the compound O=C1c2cccnc2C(=O)c2c1nc1ccccc1c2-c1ccc2c3c(nc4ccccc42)C(=O)c2cccnc2-c13 turned out to be 9.01 µM

Lab note: c1cc2ccc1C1NCCCN1CCN1CCCNC1c1ccc(cc1)C1NCCCN1CCN1CCCNC21 (centres undefined) gave TGI of > 100 µM

Lab book: TGI of CSc1ncnc2c1cnn2Cc1cn(COCC(O)CO)nn1 (centres undefined) noted as > 100 µM

Reported TGI for COc1ccc(C(=O)/C=C/c2ccc(OCCCCCCCCCCOc3ccc(/C=C/C(=O)c4ccc(OC)c(OC)c4)cc3)cc2)c(OC)c1 was > 100 µM

Entry under test: Cc1nc2ccccc2n1Cc1ccc(NC(=S)Nc2ccccc2)cc1 . Its TGI was > 100 µM

Per the records, this compound ( CC(C)(C)c1cc(C(=O)O)c(C(c2ccccc2)c2ccccc2C(=O)O)c(C(=O)O)c1 (centres undefined) ) has TGI equal to 25.4 µM

The compound listed as O=c1n(CCCN2CCOCC2)nc2n1-c1ccc3ccccc3c1SC2 has a reported TGI of > 100 µM

# TGI of O=c1cccc2n1CC1CNCC2C1 (centres undefined) = > 100 µM

// TGI value for CCC1(Cl)C(=O)NC(=O)N(C2CC(O)C(CO)O2)C1N=[N+]=[N-] (centres undefined) : > 100 µM

Entry COC(=O)Cc1cc(=O)oc2c1C(=O)CCC2 — recorded TGI = > 100 µM

The compound identified as C[C@@H](CCO)OC1OC(COC(=O)C(C)(C)C)C(OC(=O)C(C)(C)C)C(OC(=O)C(C)(C)C)C1OC(=O)C(C)(C)C (some centres undefined) registered its TGI at > 100 µM

Lab note: measured TGI of N=C(N)SCC(=O)O was > 100 µM

So for O=C1CCCC2=C1CC1=C(CCCC1=O)N2c1ccc(-c2ccccc2)cc1 , the logged TGI turned out to be > 100 µM

Form field TGI, entry O=c1ccn([C@@H]2C=C(CO)[C@@H](O)[C@H]2O)c(=O)[nH]1 : > 625 µM

Recorded TGI (compound O=c1/c(=C/c2ccc3c(c2)OCO3)sc2nnc(Cc3ccccc3)n12 ): > 100 µM

The recorded TGI for entry C/C(=C\CO)CC[C@@H]1[C@@]2(C)CCCC(C)(C)[C@@H]2CC[C@@]1(C)O equals 31 µM

# TGI of CN1C(=O)CC2(C)c3cc(C=O)ccc3N(C)C12 (centres undefined) = > 100 µM

// field: TGI; key: O=C1OC(c2ccc(Cl)c3ccccc23)c2ccccc21 (centres undefined) ; value = > 100 µM

Lookup result for Cc1ccc2nc(Nc3ccccc3C)c(Nc3ccccc3C)nc2c1 ; measured TGI: > 70 µM

For record CC(=O)OC1COC(N2c3ccccc3[C@@H]3CCc4c([nH]c5ccccc45)[C@@H]32)C(OC(C)=O)C1OC(C)=O (mixture of isomers) the listed TGI is > 100 µM

For reference, reported TGI for O=C(O)Cn1c[n+](NC(=O)Cc2ccccc2)cn1 stands at > 10 µM

Measured TGI of Cc1cc([C@H](C)Nc2nccc(N3C(=O)OC[C@@H]3[C@H](C)F)n2)ncc1-c1ccnc(C(F)(F)F)c1 : > 100 µM

TGI recorded for this compound, Nc1nc(Cl)cc(NCCCCCCNc2cc(Cl)nc(N)n2)n1 , is > 100 µM

Input CC12O[Te]34OC1(C)C(C)(O3)C2(C)O4 . Output TGI: 15.2 µM

Cc1cc(C)c2nccc(NCCCN(C)C)c2c1[N+](=O)[O-] yielded TGI of > 100 µM

Briefly, TGI measured for CN(C)C(=O)/N=C1\SC(=Nc2ccccc2)C(=Nc2ccccc2)N1c1ccc([N+](=O)[O-])cc1 : > 100 µM

For this compound ( COc1ccc2c(c1)c(-c1cc(-c3cn(C)c4ccc(OC)cc34)[nH]n1)cn2C ), measured TGI is > 100 µM

Short answer for Nc1ccc2c(SCC(=O)Nc3ccccc3-c3ccccc3NC(=O)CSc3c4ccccc4nc4cc(N)ccc34)c3ccccc3nc2c1 : TGI was 66.5 µM

Lab book: TGI of COc1cccc(C2CC(=O)Nc3cc4c(cc32)CCC4)c1OC (centres undefined) noted as 19.3 µM

Reported TGI for CC[C@H](C)[C@H](NC(=O)N[C@@H](C)c1ccccc1)C(=O)N(C)[C@H](C[C@@H](OC(C)=O)c1nc(C(=O)N[C@@H](Cc2ccccc2)C[C@H](C)C(=O)OC)cs1)C(C)C was > 100 µM
